system: T1, human EGFRvIII-hFc protein (human, UniProt P00533 25-645)
T1 construct: extracellular domain; also called immunogen A; hFc-tagged EGFRvIII protein; not shown: human IgG Fc fragment (hFc) of the pCpC vector
method: ELISA, EGFRvIII-hFc coated
Give Maximum OD450 value for every item shown.
Quick note: give the figure in OD450, leave out the unit.

Which Maximum OD450 value is reported for this binder? Humanized antibody h75G7C6-16 (antibody, human IgG1, V domains shown, also called VH-g2/VL-g3) VH: QVQLVQSGAEVKKPGASVKVSCKASGYTFTDYNMDWVKQAPGQGLEWIGDINPNNADTIYNQKFKGRVTLTVDKSTSTVYMELSSLRSEDTAVYYCARGDYDGYYPVYYAMDYWGQGTTVTVSS VL: ENVLTQSPATLSLSPGERATLSCRASSSVSSSYLHWYQQKPGQSPRLLIFSTSNLAAGVPARFSGSGSGTDYTLTISSLEPEDFAVYYCQQYSGYPLTFGGGTKVEIK
2.97

Which Maximum OD450 value is reported for this binder? Humanized antibody h63A10A7-17 (antibody, human IgG1, V domains shown, also called VH-g4/VL-g4) VH: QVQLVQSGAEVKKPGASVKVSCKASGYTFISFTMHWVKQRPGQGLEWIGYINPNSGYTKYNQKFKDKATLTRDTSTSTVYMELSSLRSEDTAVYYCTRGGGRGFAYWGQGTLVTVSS VL: DILMTQSPSSLSASVGDRVTITCHASQDINSNIGWLQQKPGKSFKALIYHGTNLEDGVPSRFSGSGSGADYTLTISSLQPEDFATYYCVQYAQFPFTFGQGTKLEIK
3.71

Which Maximum OD450 value is reported for this binder? Chimeric antibody 75G7 (antibody, human IgG1, V domains shown, also called c75G7C6; chimeric antibody c75G7C6) VH: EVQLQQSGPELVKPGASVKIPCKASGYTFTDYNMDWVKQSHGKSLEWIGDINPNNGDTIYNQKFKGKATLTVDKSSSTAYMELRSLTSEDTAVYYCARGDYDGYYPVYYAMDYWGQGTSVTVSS VL: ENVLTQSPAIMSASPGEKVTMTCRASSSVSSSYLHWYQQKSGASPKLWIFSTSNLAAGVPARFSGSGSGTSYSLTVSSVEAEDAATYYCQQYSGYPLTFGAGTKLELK
2.5
